# credit: PubChem BioAssay (NCATS)

TESTED TARGET: Glucocorticoid receptor (Homo sapiens) (UniProt P04150)
Sequence (P04150 whole entry, looked up): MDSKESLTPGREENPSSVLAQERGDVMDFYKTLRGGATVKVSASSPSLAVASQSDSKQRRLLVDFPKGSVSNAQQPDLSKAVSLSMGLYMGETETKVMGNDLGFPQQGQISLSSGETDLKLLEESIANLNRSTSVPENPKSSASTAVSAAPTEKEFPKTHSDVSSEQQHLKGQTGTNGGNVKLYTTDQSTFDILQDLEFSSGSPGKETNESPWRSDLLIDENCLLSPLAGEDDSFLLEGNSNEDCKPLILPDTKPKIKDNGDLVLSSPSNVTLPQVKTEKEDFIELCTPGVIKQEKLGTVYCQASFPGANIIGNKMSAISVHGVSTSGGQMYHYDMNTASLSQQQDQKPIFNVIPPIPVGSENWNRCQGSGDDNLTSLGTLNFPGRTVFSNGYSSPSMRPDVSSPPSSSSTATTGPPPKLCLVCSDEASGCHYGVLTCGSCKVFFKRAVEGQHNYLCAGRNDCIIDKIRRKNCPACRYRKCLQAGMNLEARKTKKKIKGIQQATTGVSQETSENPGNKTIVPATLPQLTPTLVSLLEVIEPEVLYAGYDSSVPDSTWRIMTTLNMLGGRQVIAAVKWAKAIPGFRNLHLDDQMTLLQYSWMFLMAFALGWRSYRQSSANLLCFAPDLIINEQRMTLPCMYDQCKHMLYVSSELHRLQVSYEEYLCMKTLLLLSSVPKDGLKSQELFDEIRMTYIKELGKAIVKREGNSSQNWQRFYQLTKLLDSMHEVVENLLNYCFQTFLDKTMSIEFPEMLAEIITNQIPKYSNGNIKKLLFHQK
PROTOCOL NOTES: GR-EFC Redistribution (AID 451); further: potency means the concentration at half of the fitted maximal effect
TEST CONTEXT: CHO-K1 GR-EFC translocation, beta-gal luminescence, 2 h
Activity calls are given as the source filed them. The call rests on the fitted dose curve.
READOUT TYPE: Potency

# SMILES DATA, RESULT
measured = [
    ("COC(=O)N1CCC2(CCCN(c3ccc(-c4ccccc4)cc3)C2)CC1", "> 46 µM (inactive)"),
    ("CC(C)NC(=O)N1CC[C@@]2(CCCN(C(=O)c3cc(C(F)(F)F)cc(C(F)(F)F)c3)C2)C1", "> 46 µM (inactive)"),
    ("O=C(c1ccncc1)N1CCC2(CC1)CCN(c1ccccc1)CC2", "> 46 µM (inactive)"),
    ("COc1cccc(-c2ccc3ncnc(NCc4cccnc4)c3c2)c1", "> 46 µM (inactive)"),
    ("COc1ccc(Oc2ncc3nc(-c4cn(C)c5ccccc45)c(=O)n(C4CC4)c3n2)cc1", "> 46 µM (inactive)"),
    ("COc1ccc(CNc2ccnc(-c3ccc4c(c3)OCO4)n2)c(OC)c1", "> 46 µM (inactive)"),
    ("O=c1c(-c2cc(F)cc(F)c2)nc2cnc(N3CCNCC3)nc2n1Cc1cccs1", "> 46 µM (inactive)"),
    ("COc1ccc(-c2nc3cnc(N4CCOCC4)nc3n(C)c2=O)cc1", "> 46 µM (inactive)"),
    ("Cc1noc(C)c1-c1cc(NCc2ccccc2)ncn1", "> 46 µM (inactive)"),
    ("CN1CCN(c2ncc3nc(-c4cccs4)c(=O)n(-c4ccccc4)c3n2)CC1", "> 46 µM (inactive)"),
    ("O=C(c1ccncc1)N1CCC2(CC1)CCN(c1cccc(-c3ccccc3)c1)CC2", "> 46 µM (inactive)"),
    ("O=C(c1ccncc1)N1CCC2(CC1)CN(C(c1ccccc1)c1ccccc1)C2", "> 46 µM (inactive)"),
    ("Cc1noc(C)c1-c1cc(NCc2cccnc2)ncn1", "> 46 µM (inactive)"),
    ("Cc1noc(C)c1-c1cncnc1N(C)Cc1ccco1", "> 46 µM (inactive)"),
    ("COc1cccc(-c2cc(NCc3cccs3)ncn2)c1", "> 46 µM (inactive)"),
    ("Cc1noc(C)c1-c1cc(Nc2ccc(F)cc2)ncn1", "> 46 µM (inactive)"),
    ("COc1ccc(-c2nc3cnc(Nc4cccc(OC)c4)nc3n(C3CC3)c2=O)cc1", "> 46 µM (inactive)"),
    ("Cn1cc(-c2nc3cnc(N4CCNCC4)nc3n(CCC#N)c2=O)c2ccccc21", "> 46 µM (inactive)"),
    ("CNc1cc(-c2ccccc2CN(C)C)ncn1", "> 46 µM (inactive)"),
    ("COc1ncc2nc(-c3ccccc3)c(=O)n(-c3ccccc3)c2n1", "> 46 µM (inactive)"),
    ("COc1ccccc1CNc1nc(-c2c(C)noc2C)nc2ccccc12", "> 46 µM (inactive)"),
    ("CN(Cc1ccco1)c1ncnc2ccc(-c3ccccc3Cl)cc12", "> 46 µM (inactive)"),
    ("c1cncc(CNc2cc(-c3ccc4c(c3)OCO4)ncn2)c1", "> 46 µM (inactive)"),
]
